Hey, just so you know, these numbers are from the supplement of paper PMC5998384.

Tested on: HeLa Kyoto
assayMethodText: solubility in G1/S (NP-40 vs SDS abundance) (log2 ratio); higher = more soluble
testParameters: cell cycle stage: G1/S

sequenceRecord: MALAARLWRLLPFRRGAAPGSRLPAGTSGSRGHCGPCRFRGFEVMGNPGTFKRGLLLSALSYLGFETYQVISQAAVVHATAKVEEILEQADYLYESGETEKLYQLLTQYKESEDAELLWRLARASRDVAQLSRTSEEEKKLLVYEALEYAKRALEKNESSFASHKWYAICLSDVGDYEGIKAKIANAYIIKEHFEKAIELNPKDATSIHLMGIWCYTFAEMPWYQRRIAKMLFATPPSSTYEKALGYFHRAEQVDPNFYSKNLLLLGKTYLKLHNKKLAAFWLMKAKDYPAHTEEDKQIQTEAAQLLTSFSEKN [RMDN1]
targetOrTestSystem: HeLa Kyoto
solubility in G1/S (log2): 0.16
//
sequenceRecord: MLAVHFDKPGGPENLYVKEVAKPSPGEGEVLLKVAASALNRADLMQRQGQYDPPPGASNILGLEASGHVAELGPGCQGHWKIGDTAMALLPGGGQAQYVTVPEGLLMPIPEGLTLTQAAAIPEAWLTAFQLLHLVGNVQAGDYVLIHAGLSGVGTAAIQLTRMAGAIPLVTAGSQKKLQMAEKLGAAAGFNYKKEDFSEATLKFTKGAGVNLILDCIGGSYWEKNVNCLALDGRWVLYGLMGGGDINGPLFSKLLFKRGSLITSLLRSRDNKYKQMLVNAFTEQILPHFSTEGPQRLLPVLDRIYPVTEIQEAHKYMEANKNIGKIVLELPQ [TP53I3]
targetOrTestSystem: HeLa Kyoto
solubility in G1/S (log2): 0.373
//
sequenceRecord: MFSVLSYGRLVARAVLGGLSQTDPRAGGGGGGDYGLVTAGCGFGKDFRKGLLKKGACYGDDACFVARHRSADVLGVADGVGGWRDYGVDPSQFSGTLMRTCERLVKEGRFVPSNPIGILTTSYCELLQNKVPLLGSSTACIVVLDRTSHRLHTANLGDSGFLVVRGGEVVHRSDEQQHYFNTPFQLSIAPPEAEGVVLSDSPDAADSTSFDVQLGDIILTATDGLFDNMPDYMILQELKKLKNSNYESIQQTARSIAEQAHELAYDPNYMSPFAQFACDNGLNVRGGKPDDITVLLSIVAEYTD [PPTC7]
targetOrTestSystem: HeLa Kyoto;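 further: HeLa Kyoto cells arrested at G1/S by double thymidine block, proteins quantified by TMT10plex mass spectrometry in mild NP-40 versus SDS extracts, three biological replicates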
solubility in G1/S (log2): -0.0546
